// compounds with IC50 on CREB-binding protein (Homo sapiens, UniProt Q92793), multi-source literature
Sequence (Q92793 whole entry): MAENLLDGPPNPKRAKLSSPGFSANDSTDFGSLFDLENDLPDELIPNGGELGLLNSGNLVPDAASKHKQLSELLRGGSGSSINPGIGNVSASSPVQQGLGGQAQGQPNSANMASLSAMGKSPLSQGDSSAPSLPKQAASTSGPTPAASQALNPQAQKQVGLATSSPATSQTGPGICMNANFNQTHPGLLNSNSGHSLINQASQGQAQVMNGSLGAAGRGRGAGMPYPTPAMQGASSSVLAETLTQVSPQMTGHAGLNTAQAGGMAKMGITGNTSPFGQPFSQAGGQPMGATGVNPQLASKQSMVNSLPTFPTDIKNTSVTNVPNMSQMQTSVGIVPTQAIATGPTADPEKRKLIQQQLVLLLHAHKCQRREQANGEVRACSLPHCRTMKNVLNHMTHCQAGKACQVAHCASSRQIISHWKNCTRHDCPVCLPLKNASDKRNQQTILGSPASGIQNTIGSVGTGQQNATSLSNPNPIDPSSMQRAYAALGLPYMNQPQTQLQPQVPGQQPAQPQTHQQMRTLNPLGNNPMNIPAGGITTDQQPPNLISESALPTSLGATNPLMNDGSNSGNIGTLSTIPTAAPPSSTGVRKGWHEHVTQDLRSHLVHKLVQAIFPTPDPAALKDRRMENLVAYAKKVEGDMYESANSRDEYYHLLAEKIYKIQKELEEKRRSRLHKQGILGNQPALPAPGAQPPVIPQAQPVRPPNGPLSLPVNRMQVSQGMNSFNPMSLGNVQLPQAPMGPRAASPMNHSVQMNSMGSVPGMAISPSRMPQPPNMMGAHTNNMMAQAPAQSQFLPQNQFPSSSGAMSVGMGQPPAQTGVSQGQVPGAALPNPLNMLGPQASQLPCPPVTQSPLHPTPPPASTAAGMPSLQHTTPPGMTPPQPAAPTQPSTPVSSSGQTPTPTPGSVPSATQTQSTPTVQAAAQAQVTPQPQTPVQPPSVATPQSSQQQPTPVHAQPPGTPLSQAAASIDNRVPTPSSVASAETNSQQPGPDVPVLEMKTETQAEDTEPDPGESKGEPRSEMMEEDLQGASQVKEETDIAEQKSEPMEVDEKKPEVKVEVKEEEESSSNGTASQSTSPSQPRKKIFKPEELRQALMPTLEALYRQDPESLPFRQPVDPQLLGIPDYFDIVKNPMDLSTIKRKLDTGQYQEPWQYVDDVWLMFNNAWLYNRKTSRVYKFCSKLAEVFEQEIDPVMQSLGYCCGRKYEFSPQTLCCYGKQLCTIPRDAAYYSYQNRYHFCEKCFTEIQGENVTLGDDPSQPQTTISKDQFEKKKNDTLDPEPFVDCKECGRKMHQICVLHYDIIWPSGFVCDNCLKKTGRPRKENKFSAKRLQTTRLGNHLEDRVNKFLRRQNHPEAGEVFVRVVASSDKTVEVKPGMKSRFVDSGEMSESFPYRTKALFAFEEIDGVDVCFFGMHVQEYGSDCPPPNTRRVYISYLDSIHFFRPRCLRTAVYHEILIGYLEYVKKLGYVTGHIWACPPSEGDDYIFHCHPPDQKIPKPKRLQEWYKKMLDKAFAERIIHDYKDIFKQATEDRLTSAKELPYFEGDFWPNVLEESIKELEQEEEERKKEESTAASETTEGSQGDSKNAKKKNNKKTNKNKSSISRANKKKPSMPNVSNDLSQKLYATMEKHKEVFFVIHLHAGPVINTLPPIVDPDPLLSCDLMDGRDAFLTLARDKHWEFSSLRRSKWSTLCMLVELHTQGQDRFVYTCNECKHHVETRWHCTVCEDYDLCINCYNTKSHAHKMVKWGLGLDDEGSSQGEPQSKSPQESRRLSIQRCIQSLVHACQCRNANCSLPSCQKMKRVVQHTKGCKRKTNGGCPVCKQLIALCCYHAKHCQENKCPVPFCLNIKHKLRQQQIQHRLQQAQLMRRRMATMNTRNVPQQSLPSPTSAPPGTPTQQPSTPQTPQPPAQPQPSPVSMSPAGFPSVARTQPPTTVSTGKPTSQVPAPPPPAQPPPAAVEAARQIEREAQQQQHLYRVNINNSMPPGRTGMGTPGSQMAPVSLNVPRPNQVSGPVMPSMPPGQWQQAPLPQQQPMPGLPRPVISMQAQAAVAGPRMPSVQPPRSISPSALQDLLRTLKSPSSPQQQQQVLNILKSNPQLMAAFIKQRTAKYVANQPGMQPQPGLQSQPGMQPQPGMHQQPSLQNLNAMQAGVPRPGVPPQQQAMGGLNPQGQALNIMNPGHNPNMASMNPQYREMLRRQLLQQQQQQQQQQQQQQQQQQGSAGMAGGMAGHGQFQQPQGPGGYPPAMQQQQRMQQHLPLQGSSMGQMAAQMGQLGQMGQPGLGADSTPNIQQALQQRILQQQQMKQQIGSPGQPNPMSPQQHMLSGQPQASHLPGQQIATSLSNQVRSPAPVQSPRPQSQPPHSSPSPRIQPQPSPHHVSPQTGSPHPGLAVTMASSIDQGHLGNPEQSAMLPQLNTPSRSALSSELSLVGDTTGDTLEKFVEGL

- compound: "COc1ccc(OCc2nc3cc(-c4c(C)noc4C)ccc3n2CCN2CCOCC2)cc1"
  IC50: "0.92 µM"
- compound: "CC1(C2CC2)NC(=O)N(CC(=O)Nc2ccc(Br)c(S(=O)(=O)N3CCCCC3)c2)C1=O (racemic)"
  IC50: "> 100 µM"
- compound: "CC(=O)c1nn(-c2ccccc2)c2c1CCCC2"
  IC50: "> 50 µM"
- compound: "COc1ccc(CCc2nc3cc(-c4c(C)noc4C)ccc3n2CCN2CCOCC2)cc1OC"
  IC50: "0.47 µM"
- compound: "CCCNc1ccc(C(=O)O)cc1NC(=O)c1cn(C(C)=O)c2ccccc12"
  IC50: "6.56 µM"
- compound: "COc1ccc(CCCc2nc3cc(-c4c(C)noc4C)ccn3c2NC(C)(C)CC(C)(C)C)cc1"
  IC50: "> 50 µM"
- compound: "CC(=O)c1cc(-c2cc(C(=O)NC3CC3)ccc2C)c2ncccn12"
  IC50: "3.44 µM"
- compound: "CNC(=O)Nc1cc2c(cc1F)[C@@]1(CC2)OC(=O)N(CC(=O)N2Cc3ccc(F)cc3CC[C@H]2C2CC2)C1=O"
  IC50: "0.0082 µM"
- compound: "COc1ccc2c(c1)c(C(=O)Nc1cc(C(=O)O)cc(-c3cnn(C)c3)c1F)cn2C(C)=O"
  IC50: "0.037 µM"
- compound: "CNC(=O)Nc1ccc2c(c1)COC[C@@]21OC(=O)N(CC(=O)N2Cc3cc(F)ccc3OC[C@H]2C2CC2)C1=O"
  IC50: "0.051 µM"
- compound: "CC(=O)n1cc(C(=O)Nc2cc(C(=O)O)cc(-c3cccc(F)c3)c2)c2ccccc21"
  IC50: "3.52 µM"
- compound: "CC(=O)c1cn(CC(=O)N2CCC(C(=O)O)CC2)c2ccccc12"
  IC50: "13.6 µM"
- compound: "CC(=O)n1cc(C(=O)Nc2cc(C(=O)O)cc(-c3ccc4c(cnn4C)c3)c2)c2ccccc21"
  IC50: "1 µM"
- compound: "CNC(=O)Nc1ccc2c(c1)CC[C@@]21OC(=O)N(CC(=O)N2Cc3sccc3OC[C@H]2C2CC2)C1=O"
  IC50: "0.012 µM"
- compound: "COc1ccc(CCc2cc3cc(-c4c(C)noc4C)ccc3n2CCN2CCOCC2)cc1"
  IC50: "1.5 µM"
- compound: "Cc1n[nH]c(C)c1-c1ccc2c(c1)nc(CCc1ccccc1)n2CCN1CCOCC1"
  IC50: "2.4 µM"
- compound: "CC(=O)n1cc(C(=O)Nc2cc(C(=O)O)ccc2NCC(C)C)c2ccccc21"
  IC50: "2.33 µM"
- compound: "COc1ccc2c(c1)c(C(=O)Nc1cc(C(=O)O)cc(-c3ccc4c(c3)OCCO4)c1)cn2C(C)=O"
  IC50: "0.69 µM"
- compound: "Cc1noc(C)c1-c1ccc2c(c1)nc(CCc1ccc(N(C)C)cc1)n2CCN1CCOCC1"
  IC50: "0.21 µM"
